# System: SF-268 CNS
# Test method notes: NCI-60 one-dose screen, 48 h (100 = growth as untreated, 0 = no growth, -100 = all killed)
# Reported conditions: 10 µM unless noted
The panel holds about 83,000 compounds, 20% with a hit somewhere; the sample as a whole holds those more often.
Each entry below lists one item and its recorded growth value.
Answer in %, number only, no unit symbol.

In the examples that follow, each entry is paired with its recorded growth.
growth on SF-268 CNS for "C=CCn1c(SCC(=O)Nc2cccc(C(=O)/C=C/c3cccc([N+](=O)[O-])c3)c2)nc2ccccc2c1=O" is 92.5

growth on SF-268 CNS for "NC(=O)c1c(NC(=O)c2cccc(C(F)(F)F)c2F)sc2c1CCC(=O)C2" is 21.6

growth on SF-268 CNS for CCOC(=O)C1=C(C)Nc2nc3ccccc3n2C1c1ccccc1 (centres undefined) is 102

growth on SF-268 CNS for "COC(=O)c1nc(-c2ccc(C)cc2)oc1S(=O)(=O)N1CCN(c2oc(-c3ccccc3)nc2C#N)CC1" is 98

***
growth on SF-268 CNS for "Cc1nn(-c2ccccc2)c2nc(CCl)[nH]c(=O)c12" is 106

* * *

# Test system: HOP-62 NSCLC
# Test method notes: NCI-60 one-dose screen, 48 h
# Reported conditions: 10 µM unless noted
This is part of a sample that, as a whole, favours compounds with a hit. Of some 83,000 tested, about 20% had one in any assay. Active and inactive are the calls of the source. How the source made its calls: active means growth percent below 10; inactive means the rest.
Log the outcome using a class from T (active), F (inactive)

// return assay outcome for "CC(C)=CCc1c(O)c(CC=C(C)C)c2c(c1O)C(=O)C1=C[C@@H]3C[C@H]4C(C)(C)O[C@@](C/C=C(\C)C(=O)O)(C3=O)[C@@]14O2"
T

// return assay outcome for "Clc1ccccc1/C=C/c1nn2c(-c3ccncc3)nnc2s1"
F

***
// return assay outcome for CC1CCc2c(sc3nc(SCC(=O)N/N=C/c4cccc(O)c4O)n(-c4ccccc4)c(=O)c23)C1 (configuration not stated)
F

// return assay outcome for CCN1C(=O)N(CC)C2SC(N/N=C/c3ccc(OC)cc3)=NC21 (configuration not stated)
F

// return assay outcome for "COc1cc2c3c(n(CCCNC4CCCC4)c(=O)c2cc1OC)-c1cc2c(cc1C3=O)OCO2"
T

// return assay outcome for "CN(c1ccc(Br)cc1)S(=O)(=O)c1ccc(-c2cnc(C3CC3)o2)cc1"
F

// return assay outcome for "Cc1ccccc1/C=C/c1nn2c(-c3ccoc3C)nnc2s1"
F

* * *

# Tested on: MOLT-4 leukemia
# Test method notes: NCI-60 one-dose screen, 48 h (100 = growth as untreated, 0 = no growth, -100 = all killed)
# Reported conditions: 10 µM unless noted
This is part of a sample that, as a whole, favours compounds with a hit. Of some 83,000 tested, about 20% had one in any assay.
Readout name: growth (%)
Answer in %, number only, no unit symbol.

Record summary for COc1ccc(C2C(C#N)=C(N)Oc3c2sc2ccc(C)cc32)cc1 (stereo unspecified) : reported growth = 45

Record summary for COc1cc(C2=NN(C(C)=O)C(c3ccc(N4CCOCC4)cc3)C2)cc(OC)c1OC (stereo unspecified) : reported growth = 106

Record summary for "CCNC(=O)Oc1ccc(/C(=C(/C)c2ccc(Cl)cc2)c2ccc(OCCN3CCCC3)cc2)cc1" : reported growth = 58.6

Record summary for COc1ccc(C2CC(c3ccc(Nc4nc(NCCO)nc(Nc5ccc(Cl)cc5)n4)cc3)=Nc3c(N)nc(N)nc3N2)cc1 (stereo unspecified) : reported growth = 3.14

Record summary for "O=C(CCCCCCN1CC(=O)N2[C@@H](c3cccc(Br)c3)c3[nH]c4ccccc4c3C[C@H]2C1=O)NO" : reported growth = 12.4

Record summary for "O=C(Nc1cccc(-c2nc(-c3ccc(NC(=O)c4cccnc4)cc3Cl)no2)c1)Nc1ccc(NC(=O)C2CC2)c(C(F)(F)F)c1" : reported growth = -39.7

***
Record summary for "O=C(CSc1nnc(-c2ccc(Cl)cc2)n1-c1ccccc1)Nc1ccc(F)cc1" : reported growth = 103

Record summary for "C/C=C/[C@@H]1C=C[C@@H]2C[C@H](C)CC[C@H]2[C@]1(C)/C(O)=C1/C(=O)[C@H](CO)N(C)C1=O" : reported growth = 60.6

* * *

# Tested on: SNB-75 CNS
# Test method notes: NCI-60 one-dose screen, 48 h (100 = growth as untreated, 0 = no growth, -100 = all killed)
# Reported conditions: 10 µM unless noted
Compounds without any hit were thinned out: in the full panel of roughly 83,000, 20% have a hit.
Field 'label' (enum: 1 / -1). Set to 1 when growth is strictly under 90%; else -1.

Take a look at these entries with their results.
Field: below-cutoff. Rule: recorded growth strictly less than 90%. Subject: "CN1CCN(c2nc(-c3cnc4ccccc4n3)cc3ccccc23)CC1"
1

Field: below-cutoff. Rule: recorded growth strictly less than 90%. Subject: "CC1=C2C(=C[C@@](C)(COS(N)(=O)=O)[C@@H]2O)C(=O)[C@](C)(O)C12CC2"
1

Field: below-cutoff. Rule: recorded growth strictly less than 90%. Subject: "COc1ccc(S(=O)(=O)n2cc(C=O)c3ccccc32)c(OC)c1"
1

Field: below-cutoff. Rule: recorded growth strictly less than 90%. Subject: "COc1ccc(NS(=O)(=O)c2ccc(-c3cnc(C4CC4)o3)cc2)cc1Cl"
1

Field: below-cutoff. Rule: recorded growth strictly less than 90%. Subject: "O=C1c2c(O)cc(O)cc2O[C@@H](c2ccc(O)cc2)[C@@H]1c1c(O)cc(O)c2c(=O)cc(-c3ccc(O)c(O)c3)oc12"
1

***
Field: below-cutoff. Rule: recorded growth strictly less than 90%. Subject: CS(=O)c1nccc(-c2c(-c3ccc(F)c(OCc4ccc(F)cc4)c3)nc3sccn23)n1 (stereo unspecified)
-1

Field: below-cutoff. Rule: recorded growth strictly less than 90%. Subject: "CCOC(=O)c1c(Nc2ccccc2)nn2c(-c3ccc(OC)c(OC)c3)ccnc12"
1

Field: below-cutoff. Rule: recorded growth strictly less than 90%. Subject: "Cc1nc(-c2cc3ccccc3c(N3CCN(C)CC3)n2)cs1"
1

Field: below-cutoff. Rule: recorded growth strictly less than 90%. Subject: COC[C@@]1(C)CC[C@]2(C)CC[C@]3(C)C(=CC[C@@H]4[C@@]5(C)CCCNC(C)(C)[C@@H]5CC[C@]43C)C2C1 (stereo partly specified)
-1

Field: below-cutoff. Rule: recorded growth strictly less than 90%. Subject: "N#C/C(=C\c1ccc2ccccc2c1)C(=O)Nc1sc2c(c1C#N)CCC2"
-1

Field: below-cutoff. Rule: recorded growth strictly less than 90%. Subject: "C=C1C(=O)O[C@@H]2C[C@@H](C)[C@H](OC)CC(=O)[C@](C)(OC(C)=O)C[C@H](OC(=O)/C(C)=C\C)[C@@H]12"
1

Field: below-cutoff. Rule: recorded growth strictly less than 90%. Subject: "COc1cc(C(=O)c2cc(C(C)=O)c3c4ccccc4ccn23)cc(OC)c1OC"
1

Field: below-cutoff. Rule: recorded growth strictly less than 90%. Subject: "NS(=O)(=O)c1ccc(Nc2nc(N/N=C/c3ccc(F)cc3)nc(Nc3ccccc3)n2)cc1"
-1

Field: below-cutoff. Rule: recorded growth strictly less than 90%. Subject: "CCc1ccc(NC(=O)N[C@@H](Cc2cccc(F)c2)C(=O)N[C@@H]2C(=O)N3CCC[C@H]3C(=O)N3CCCC[C@H]3C(=O)N[C@@H](C)C(=O)N3C[C@H](C)C[C@H]3C(=O)O[C@H]2C)c(F)c1"
1

Field: below-cutoff. Rule: recorded growth strictly less than 90%. Subject: COc1cc(C2=NN(C(C)=O)C(c3ccc(N4CCOCC4)cc3)C2)cc(OC)c1OC (stereo unspecified)
-1

* * *

# Test system: EKVX NSCLC
# Test method notes: NCI-60 one-dose screen, 48 h
# Reported conditions: 10 µM unless noted
This is part of a sample that, as a whole, favours compounds with a hit. Of some 83,000 tested, about 20% had one in any assay. Activity calls are given as the source filed them. How the source made its calls: active means growth percent below 10; inactive means the rest.
Log the outcome using a class from T for active, F for inactive

// return assay outcome for "CS(=O)(=O)c1nccc(-c2c(-c3ccc(F)c(OCc4ccc(F)cc4)c3)nc3sccn23)n1"
F

// return assay outcome for "COc1ccc(CCN2C(=O)CSC2=S)cc1OC"
F

// return assay outcome for "Cc1cc(O)c(=O)cc2c1C[C@H]1CC(C)(C)/C=C/C[C@]3(C)Oc4cc(=O)c(O)cc(C)c4C[C@H]3C[C@H](O)[C@@]1(C)O2"
T

***
// return assay outcome for "O=C(Nc1cccc(Cl)c1)Nc1nc2ccc([N+](=O)[O-])cc2s1"
F

// return assay outcome for CC1(C)CC[C@]2(C(=O)O)CC[C@]3(C)C(=CCC4[C@@]5(C)C[C@@H](O)[C@@H]6OC(c7ccccc7O)OC[C@@]6(C)C5CC[C@]43C)C2C1 (stereo partly drawn)
F

// return assay outcome for "Cn1c2ccccc2c2c3c(c4c5ccc(Br)cc5oc4c21)C(=O)N(O)C3=O"
F

// return assay outcome for "CC(=O)NC(C)(C)C(=O)N1CCC[C@H]1C(=O)NC(C)(C)C(=O)N[C@@H](C)C(=O)NC(C)(C)C(=O)NC(C)(C)C(=O)N[C@@H](CCC(N)=O)C(=O)NC(C)(C)C(=O)N[C@H](C(=O)NC(C)(C)C(=O)NCC(=O)N[C@@H](CC(C)C)C(=O)NC(C)(C)C(=O)N1CCC[C@H]1C(=O)N[C@H](C(=O)NC(C)(C)C(=O)NC(C)(C)C(=O)N[C@@H](CCC(N)=O)C(=O)N[C@@H](CCC(N)=O)C(=O)N[C@H](CO)Cc1ccccc1)C(C)C)C(C)C"
F

// return assay outcome for "C=CCn1c(SCC(=O)c2ccc(OC)cc2)nnc1-c1ccc(OC)cc1"
F
